Target: UniProt P36888
Sequence (P36888 27-993): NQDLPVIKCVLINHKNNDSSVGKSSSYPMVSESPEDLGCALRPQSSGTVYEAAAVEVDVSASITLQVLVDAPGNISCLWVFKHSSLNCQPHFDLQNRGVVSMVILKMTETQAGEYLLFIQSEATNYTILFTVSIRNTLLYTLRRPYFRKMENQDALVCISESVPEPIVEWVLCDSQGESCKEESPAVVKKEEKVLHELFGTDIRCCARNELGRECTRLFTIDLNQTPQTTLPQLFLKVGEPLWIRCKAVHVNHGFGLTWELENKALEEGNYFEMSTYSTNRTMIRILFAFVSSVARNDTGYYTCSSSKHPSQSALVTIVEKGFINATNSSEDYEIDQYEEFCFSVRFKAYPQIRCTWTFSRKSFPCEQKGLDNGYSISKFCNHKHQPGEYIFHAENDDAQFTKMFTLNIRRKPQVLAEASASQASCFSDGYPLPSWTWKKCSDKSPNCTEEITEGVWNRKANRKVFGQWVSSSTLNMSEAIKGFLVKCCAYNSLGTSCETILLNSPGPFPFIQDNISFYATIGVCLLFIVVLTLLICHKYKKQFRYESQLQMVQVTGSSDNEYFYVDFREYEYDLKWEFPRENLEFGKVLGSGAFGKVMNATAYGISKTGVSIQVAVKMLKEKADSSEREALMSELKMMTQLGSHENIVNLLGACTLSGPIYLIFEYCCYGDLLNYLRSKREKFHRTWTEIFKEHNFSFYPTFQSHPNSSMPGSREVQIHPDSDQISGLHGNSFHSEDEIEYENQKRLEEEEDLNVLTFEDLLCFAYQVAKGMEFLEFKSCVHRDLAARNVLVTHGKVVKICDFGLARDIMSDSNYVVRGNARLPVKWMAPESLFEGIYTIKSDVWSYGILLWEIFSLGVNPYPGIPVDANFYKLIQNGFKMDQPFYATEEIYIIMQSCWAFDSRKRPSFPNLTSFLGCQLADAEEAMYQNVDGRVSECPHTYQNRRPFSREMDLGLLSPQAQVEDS
Assay: Cell-Based FLT3 Receptor Elisa (Baf3 FLT3 cells, FLT3 phosphorylation)
Conditions: Flt ligand stimulated FLT3 phosphorylation, 1 hour compound incubation, uncertainty +20%
From the text: Cells overexpressing the FLT3 receptor were obtained from Dr. Michael Heinrich (Oregon Health and Sciences University). The Baf3 FLT3 cell lines were created by stable transfection of parental Baf3 cells (a murine B cell lymphoma line dependent on the cytokine IL-3 for growth) with wild-type FLT3. Cells were selected for their ability to grow in the absence of IL-3 and in the presence of FLT3 ligand. […]

COMPOUND	OPERATOR SYMBOL	IC50 / nM
CCN(CC)c1ccc(NC(=O)NC2CCN(c3ncnc4ccsc34)C2)cc1 (stereo not drawn)	=	895
O=C(Nc1ccc(OC2CCC2)nc1)OC1CCN(c2ncnc3ccsc23)C1 (stereo not drawn)	=	1600
CC(C)c1ccc(NC(=O)NC2CCN(c3ncnc4sccc34)C2)cc1 (stereo not drawn)	=	55
CC(C)c1ccc(NC(=O)NC2CCN(c3ncnc4ccsc34)C2)cc1 (stereo not drawn)	=	108
CC(C)c1ccc(NC(=O)OC2CCN(c3ncnc4ccsc34)C2)cc1 (stereo not drawn)	=	22
O=C(Nc1ccc(N2CCCC2)cc1)NC1CCN(c2ncnc3ccsc23)C1 (stereo not drawn)	=	2900
O=C(Nc1ccc(Oc2ccccc2)cc1)OC1CCN(c2ncnc3ccsc23)C1 (stereo not drawn)	=	390
O=C(Nc1ccc(Oc2ccccc2)cc1)NC1CCN(c2ncnc3ccsc23)C1 (stereo not drawn)	>	5000
O=C(Nc1ccc(OC2CCC2)nc1)NC1CCN(c2ncnc3ccsc23)C1 (stereo not drawn)	=	1900
